Where do the numbers come from? From the supplement of paper PMC10065799.

- Target System: EPHB1 (UniProt P54762)
- Sequence (P54762 whole entry, looked up): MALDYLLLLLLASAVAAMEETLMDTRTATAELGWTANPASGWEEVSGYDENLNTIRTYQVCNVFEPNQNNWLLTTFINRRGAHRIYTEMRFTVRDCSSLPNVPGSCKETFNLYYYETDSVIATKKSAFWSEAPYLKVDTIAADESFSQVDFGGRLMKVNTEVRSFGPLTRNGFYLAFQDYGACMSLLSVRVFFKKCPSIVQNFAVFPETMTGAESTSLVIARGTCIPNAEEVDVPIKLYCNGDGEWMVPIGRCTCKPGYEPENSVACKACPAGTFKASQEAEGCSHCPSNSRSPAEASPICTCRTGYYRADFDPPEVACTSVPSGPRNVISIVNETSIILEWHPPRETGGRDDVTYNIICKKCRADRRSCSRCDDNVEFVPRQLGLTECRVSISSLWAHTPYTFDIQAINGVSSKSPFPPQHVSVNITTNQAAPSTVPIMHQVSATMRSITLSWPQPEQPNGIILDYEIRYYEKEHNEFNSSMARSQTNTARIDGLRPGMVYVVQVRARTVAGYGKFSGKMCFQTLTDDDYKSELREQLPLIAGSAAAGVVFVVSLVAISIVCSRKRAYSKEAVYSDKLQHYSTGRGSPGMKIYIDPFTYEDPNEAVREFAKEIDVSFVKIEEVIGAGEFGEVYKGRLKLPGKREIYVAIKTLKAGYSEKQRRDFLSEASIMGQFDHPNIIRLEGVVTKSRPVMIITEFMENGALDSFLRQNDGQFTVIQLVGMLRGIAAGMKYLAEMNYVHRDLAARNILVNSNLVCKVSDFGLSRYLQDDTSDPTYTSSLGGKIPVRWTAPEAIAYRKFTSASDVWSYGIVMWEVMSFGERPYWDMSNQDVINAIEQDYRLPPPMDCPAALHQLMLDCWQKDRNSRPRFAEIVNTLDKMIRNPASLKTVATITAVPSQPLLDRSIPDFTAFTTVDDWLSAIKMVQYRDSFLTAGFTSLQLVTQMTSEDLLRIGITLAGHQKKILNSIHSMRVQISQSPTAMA
- Assay Procedure: phosphorylation enrichment, bacterial display (enrichment ratio); higher = better substrate or ligand; peptides without Tyr show the background;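 note: 11-residue human phosphosite peptides and single-mutation variants displayed on the E. coli surface, counted by deep sequencing, each peptide's frequency after selection divided by its frequency in the unselected input library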;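 note: frequency after pTyr selection over input frequency; kinase dosed for 20-30% of maximal phosphorylation in three min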

Query Sequence: EVKRLYGSVCD [TC2N_Y154]
phosphorylation enrichment: 0.529
//
Query Sequence: KRFRIYHLAIS [BRCA2_Y3009_T3013I_YF]
phosphorylation enrichment: 0.612
//
Query Sequence: PKSLFYLLLKL [TRPC6_Y775]
phosphorylation enrichment: 1.04
//
Query Sequence: GLRYGYGGLGG [KRTAP20-2_Y15_V17G]
phosphorylation enrichment: 0.349
//
Query Sequence: ILGRTYFVNHE [NEDD4_Y627_YF]
phosphorylation enrichment: 0.526
//
Query Sequence: DRFDNYIEKVR [DES_Y122_A120D]
phosphorylation enrichment: 0.348
//
Query Sequence: ESLSSYRESAK [APOC2_Y47_W48R]
phosphorylation enrichment: 0.252
//
Query Sequence: RGVTRYIYNRE [HLA-DQB1_Y62_Y58G]
phosphorylation enrichment: 0.912
//
Query Sequence: HLGNQYVNVMN [SLC3A1_Y461_R456H]
phosphorylation enrichment: 0.565
//
Query Sequence: IGHGSYAKVLL [PRKCZ_Y263_R260H]
phosphorylation enrichment: 0.536
//
Query Sequence: LCRYGYANTSE [SI_Y1233]
phosphorylation enrichment: 0.78
//
Query Sequence: SGPRRYTMAAL [TTR_Y125_I127M]
phosphorylation enrichment: 0.396
//
Query Sequence: NFAKMYCNPDA [KNL1_Y489_YF]
phosphorylation enrichment: 0.502
//
Query Sequence: EILTQYEAMAS [GFAP_Y242_R239L]
phosphorylation enrichment: 0.547
//
Query Sequence: SDQPDYDSVAS [GIT2_Y392_N387S]
phosphorylation enrichment: 0.655
//
Query Sequence: EPYELYCEMGS [CBL_Y371_Q367P]
phosphorylation enrichment: 5.73
//
Query Sequence: PVDTYYDSTRG [DYNC2H1_Y2231_M2227V]
phosphorylation enrichment: 0.934
//
Query Sequence: ISSLCYELLEE [TRPC6_Y896_R895C]
phosphorylation enrichment: 0.986
//
Query Sequence: ILDEAYVMASV [EGFR_Y764]
phosphorylation enrichment: 0.598
//
Query Sequence: RSRSPYSPVLR [CDK13_Y399]
phosphorylation enrichment: 0.476
//
Query Sequence: LITSVYGCSRQ [TMPRSS6_Y290]
phosphorylation enrichment: 0.989
//
Query Sequence: QFFQSYFNNNF [ZNF236_Y644]
phosphorylation enrichment: 0.981
//
Query Sequence: VTDGKYAFKPK [GTF2E2_Y137_I133T]
phosphorylation enrichment: 0.299
//
Query Sequence: RHPLDYLRQFP [NARS2_Y138_E137D_YF]
phosphorylation enrichment: 0.458
//
Query Sequence: LNNIIYRVERA [CUX2_Y1470]
phosphorylation enrichment: 0.87
//
Query Sequence: EVGRVYLFLQP [ITGA2B_Y360]
phosphorylation enrichment: 0.838
//
Query Sequence: HLRAGYIIPLQ [GAA_Y822]
phosphorylation enrichment: 0.398
//
Query Sequence: VVLGSYDRLRV [IFT172_Y260]
phosphorylation enrichment: 0.442
//
Query Sequence: GMRHGHGVRQS [JPH2_Y141_Y141H]
phosphorylation enrichment: 0.775
//
Query Sequence: KPLMPSMRYSR [SMARCE1_Y73_Y73S]
phosphorylation enrichment: 0.328
//
Query Sequence: VDTFWYKFLKR [EPM2A_Y86]
phosphorylation enrichment: 0.657
//
Query Sequence: LRFKQYLRNPP [SHC1_Y315]
phosphorylation enrichment: 0.562
//
Query Sequence: SQSKGYRPKLF [SIPA1L3_Y1376_G1371S_YF]
phosphorylation enrichment: 0.415
//
Query Sequence: GRDQPYSGAGD [TYRO3_Y828]
phosphorylation enrichment: 0.293
//
Query Sequence: SADIAYNFRHG [PAH_Y166_F161S_YF]
phosphorylation enrichment: 0.447
//
Query Sequence: CTTIHYSYMCN [TP53_Y234_N235S]
phosphorylation enrichment: 0.524
//
Query Sequence: DYSLKYATDIP [APC_Y1183]
phosphorylation enrichment: 0.78
//
Query Sequence: PHMQTYEVDLN [SDHB_Y61]
phosphorylation enrichment: 0.978
//
Query Sequence: FQLENCCNGGG [INS_Y108_Y108C_YF]
phosphorylation enrichment: 0.509
//
Query Sequence: FIGCIYLFLTK [GARS1_Y414_R412C_YF]
phosphorylation enrichment: 0.251
//
Query Sequence: CTLLPYFSAPV [DGKE_Y269_R273P_YF]
phosphorylation enrichment: 0.66
//
Query Sequence: REENGYNTYAS [FGF10_Y161_I156R]
phosphorylation enrichment: 0.856
//
Query Sequence: FSGKAYADEER [CRIM1_Y826]
phosphorylation enrichment: 0.565
//
Query Sequence: AVHPGYGFLSE [PCCA_Y143]
phosphorylation enrichment: 0.46
//
Query Sequence: EGLKVYINGTL [ADGRD1_Y183_V184I]
phosphorylation enrichment: 0.663
//
Query Sequence: TMKSHYMELFD [BBS2_Y644_R643H_YF]
phosphorylation enrichment: 0.764
//
Query Sequence: DAPVVYLGSFG [PRAG1_Y132_R137G]
phosphorylation enrichment: 0.389
//
Query Sequence: RKKEEYKMALF [F8_Y1990_YF]
phosphorylation enrichment: 0.734
//
Query Sequence: CEHRGYLYLAI [TEK_Y897]
phosphorylation enrichment: 0.664
//
Query Sequence: IDGLEYLHSQG [STK11_Y166]
phosphorylation enrichment: 0.578
//
Query Sequence: QAPPVYLDVLG [NTRK1_Y791]
phosphorylation enrichment: 4.2
